I'd appreciate it if you could supply abundance fitness values for the items below.
B1: POU domain, class 2, transcription factor 2, residues 200 to 269; numbered along this chain, P09086 (parent)
chain: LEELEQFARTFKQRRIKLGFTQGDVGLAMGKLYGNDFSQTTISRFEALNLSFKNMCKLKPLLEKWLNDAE

variants of: B1; experiment: abundance fitness (aPCA) (normalised: wild type 0, dead -1); higher = more abundant; growth selection in yeast, the domain comes from the species named; conditions: Homo sapiens
One number for each entry.

// known answers, use as guide
Mutant designation: G26V
abundance fitness: -0.022

Mutant designation: R14P
abundance fitness: -1.23

Mutant designation: K57Q
abundance fitness: -0.023

Mutant designation: Q39E
abundance fitness: 0.01

Mutant designation: L1S
abundance fitness: -0.027

List abundance fitness for every entry below, keeping the order given.
1. I42M
2. S51D
3. G23F
4. F37Y
5. K17R
6. F7Y
7. K57W

result:
1: -0.122; 2: 0.06; 3: -0.01; 4: -0.048; 5: 0.006; 6: -0.192; 7: -0.068

Lab note: each variant below needs its abundance fitness filled in.
1. W65P
2. S38D
3. A47Q
4. K12L
5. E46N
6. G23P
7. C56Q

result:
1: -0.433; 2: 0.241; 3: 0.035; 4: -0.232; 5: -0.973; 6: -0.136; 7: 0.062

Please state abundance fitness for every variant in the list that follows.
1. D24I
2. K57A
3. D24G
4. A47F
5. F11M
6. N49D
7. E2R

result:
[-0.792, -0.057, -0.113, -0.173, -0.167, 0.049, -0.066]
